TARGET_OR_TEST_SYSTEM: human GLP-1 receptor (human, UniProt P43220 24-463)
Sequence (P43220 24-463): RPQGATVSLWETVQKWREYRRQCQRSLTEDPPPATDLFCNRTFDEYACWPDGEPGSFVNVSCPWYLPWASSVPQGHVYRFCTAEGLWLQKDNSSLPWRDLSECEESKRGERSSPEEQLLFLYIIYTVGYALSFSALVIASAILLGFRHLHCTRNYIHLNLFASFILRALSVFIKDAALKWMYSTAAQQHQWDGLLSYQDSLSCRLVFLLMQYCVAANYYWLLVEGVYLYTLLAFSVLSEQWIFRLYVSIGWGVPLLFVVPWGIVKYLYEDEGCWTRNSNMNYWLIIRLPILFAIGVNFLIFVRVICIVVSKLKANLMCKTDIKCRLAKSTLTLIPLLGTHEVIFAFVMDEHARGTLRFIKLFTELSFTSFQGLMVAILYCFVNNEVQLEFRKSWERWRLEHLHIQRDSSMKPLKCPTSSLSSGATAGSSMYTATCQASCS
TEST_METHOD_NOTES: cell-based or functional assay
Non-standard residues stand in square brackets, D forms with d. No end group written: not given here. 2CF3,4F‑APPA = 2-amino-5-(4-fluoro-2-(trifluoromethyl)phenyl)pentanoic acid; Bip(2'-Et-4'-OMe) = CCc1cc(OC)ccc1-c1ccc(C[C@H](N)C(=O)O)cc1; Leu(5,5,5,5',5',5'-F6) = N[C@@H](CC(C(F)(F)F)C(F)(F)F)C(=O)O; 2F‑APPA = 2-amino-5-(2-fluorophenyl)pentanoic acid; αMePhe(2-F) = C[C@](N)(Cc1ccccc1F)C(=O)O; hhPhe = N[C@@H](CCCc1ccccc1)C(=O)O; αMeF = C[C@](N)(Cc1ccccc1)C(=O)O; aThr = C[C@H](O)[C@H](N)C(=O)O; CNB = not defined here; Aib = CC(C)(N)C(=O)O
MEASURED_QUANTITY: cAMP release, % activity, 1 µM (%)

- BINDER: "H[Aib][Leu(5,5,5,5',5',5'-F6)]GT[αMeF]TSD[Bip(2'-Et-4'-OMe)][hhPhe] [Seq. ID. No. 230: H-Aib-(Hfl)-GT-(α-Me-Phe)-TSD-Bip(OMe)-(APPA)]"
  cAMP release, % activity, 1 µM [%]: 99
- BINDER: "H[Aib][CNB]GTFTSD[Bip(2'-Et-4'-OMe)][2CF3,4F‑APPA] (reading uncertain) [Seq. ID. No. 80: H-Aib-(CNB)-GTFTSD-Bip(OMe)-(2CF3, 4F-APPA)]"
  cAMP release, % activity, 1 µM [%]: 99
- BINDER: "H[Aib][Leu(5,5,5,5',5',5'-F6)]G[aThr][αMePhe(2-F)][aThr]SD[Bip(2'-Et-4'-OMe)][2F‑APPA] (also: thioamide (C═S) bonds Z9-Z10 and Z10-Z11) [Seq. ID. No. 216: H-Aib-(Hfl)-G-T(allo)-(α-Me-2F-Phe)-T(allo)-SD-(C═S)-Bip(OMe)-(C═S)-(2F-APPA)]"
  cAMP release, % activity, 1 µM [%]: 99
- BINDER: "H[Aib][CNB]G[aThr][αMePhe(2-F)]TSD[Bip(2'-Et-4'-OMe)][hhPhe] (reading uncertain) [Seq. ID. No. 110: H-Aib-(CNB)-G-T(allo)-(α-Me-2F-Phe)-TSD-Bip(OMe)-(APPA)]"
  cAMP release, % activity, 1 µM [%]: 94
- BINDER: "H[Aib][CNB]G[aThr][αMePhe(2-F)][aThr]SD[Bip(2'-Et-4'-OMe)][2F‑APPA] (reading uncertain; also: thioamide bonds between residues 9-10 and 10-11) [Seq. ID. No. 180: H-Aib-(CNB)-G-T(allo)-(α-Me-2F-Phe)-T(allo)-SD-(C═S)-Bip(OMe)-(C═S)-(2F-APPA)]"
  cAMP release, % activity, 1 µM [%]: 96
